# targetEntity: IRAK4 (Homo sapiens (Human))
# Sequence (Q9NWZ3 whole entry): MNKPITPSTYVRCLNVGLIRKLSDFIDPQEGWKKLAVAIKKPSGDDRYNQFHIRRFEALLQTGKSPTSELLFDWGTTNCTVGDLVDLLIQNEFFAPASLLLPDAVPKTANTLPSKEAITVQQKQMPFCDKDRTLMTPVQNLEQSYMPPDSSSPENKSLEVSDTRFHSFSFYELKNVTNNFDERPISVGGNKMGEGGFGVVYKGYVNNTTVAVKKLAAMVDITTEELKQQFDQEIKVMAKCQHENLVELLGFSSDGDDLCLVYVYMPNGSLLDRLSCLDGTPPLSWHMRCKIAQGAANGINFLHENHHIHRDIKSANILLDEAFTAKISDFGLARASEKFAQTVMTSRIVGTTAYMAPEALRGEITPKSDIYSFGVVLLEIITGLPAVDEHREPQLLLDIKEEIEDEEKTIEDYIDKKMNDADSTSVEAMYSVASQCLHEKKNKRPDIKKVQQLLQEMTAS
The following compounds are shown together with reported IC50 values.
assayEndpoint: IC50 (nM)

CC(C)(O)[C@H](F)CNC(=O)c1cnc(-c2ccc3cc(C#N)cnn23)cc1N[C@H]1CC[C@H](n2cc(F)cn2)CC1; 2
CC(C)(O)[C@H](F)CNC(=O)c1cnc(-c2ccc3cc(C#N)cnn23)cc1NC1CCC(c2ccncc2)CC1 (single isomer, unassigned); 9
CC(C)(O)[C@H](F)CNC(=O)c1cnc(-c2ccc3cc(C#N)cnn23)cc1N[C@H]1CC[C@H](c2nnc(C(F)F)o2)OC1; 0.868
CC(C)(O)[C@H](F)CNC(=O)c1cnc(-c2ccc3cc(C#N)cnn23)cc1NC1CCC(c2cnc(C(F)F)nc2)CC1 (stereo partly shown); 1
Cc1noc([C@H]2CC[C@H](Nc3cc(-c4ccc5cc(C#N)cnn45)ncc3C(=O)NC[C@@H](F)C(C)(C)O)CC2)n1; 2
Cc1ncoc1[C@@H]1CCC[C@@H](Nc2cc(-c3ccc4cc(C#N)cnn34)ncc2C(=O)NC[C@@H](F)C(C)(C)O)C1; 10
CC(C)(O)[C@H](F)CNC(=O)c1cnc(-c2ccc3cc(C#N)cnn23)cc1N[C@H]1CC[C@H](n2cnnc2C(F)F)CC1; 1

---

So I've got IC50 readings for IRAK4 (Homo sapiens (Human)), take a look.
assayEndpoint: IC50 (nM)

CC(C)(O)[C@H](F)CNC(=O)c1cnc(-c2ccc3cc(C#N)cnn23)cc1N[C@H]1CC[C@H](c2nnn(C(F)F)n2)CC1 [Compound 72]; 0.639
CC(C)(O)[C@H](F)CNC(=O)c1cnc(-c2ccc3cc(C#N)cnn23)cc1N[C@H]1CC[C@H](c2cc(C(F)F)no2)CC1 [Compound 47]; 2
Cn1cc([C@H]2CC[C@H](Nc3cc(-c4ccc5cc(C#N)cnn45)ncc3C(=O)NC[C@@H](F)C(C)(C)O)CC2)cn1 [Compound 7]; 1
CC(C)(O)[C@H](F)CNC(=O)c1cnc(-c2ccc3cc(C#N)cnn23)cc1N[C@H]1CC[C@H](C2CCOCC2)CC1 [Compound 67]; 1
CC(C)(O)[C@H](F)CNC(=O)c1cnc(-c2ccc3cc(C#N)cnn23)cc1N[C@H]1CC[C@H](c2cncnc2)CC1 [Compound 57]; 2
Cc1c(C2CCC(Nc3cc(-c4ccc5cc(C#N)cnn45)ncc3C(=O)NC[C@@H](F)C(C)(C)O)CC2)cnn1C(F)F (stereo partly shown) [Compound 10]; 8
CC(C)(O)[C@H](F)CNC(=O)c1cnc(-c2ccc3cc(C#N)cnn23)cc1N[C@H]1CC[C@H](c2cnn(CC3CC3)c2)CC1 [Compound 13]; 2
CC(C)(O)[C@H](F)CNC(=O)c1cnc(-c2ccc3cc(C#N)cnn23)cc1N[C@H]1CC[C@H](c2nc(C(F)F)co2)CC1 [Compound 46]; 2
CC(C)(O)[C@H](F)CNC(=O)c1cnc(-c2ccc3cc(C#N)cnn23)cc1N[C@H]1CC[C@@H](c2cc[nH]n2)CC1 [Compound 71]; 3.13
CC(C)(O)[C@H](F)CNC(=O)c1cnc(-c2ccc3cc(C#N)cnn23)cc1N[C@H]1CC[C@H](n2nc(C(F)F)cc2C(F)F)CC1 [Compound 29]; 7
CC(C)(O)[C@H](F)CNC(=O)c1cnc(-c2ccc3cc(C#N)cnn23)cc1N[C@H]1CC[C@H](c2cnn(C(F)(F)F)c2)CC1 [Compound 4]; 3
